Quantity: glass transition temperature (°C)

Molecule | Reported Measurement
*CC(*)c1ccc(OCCOCCOC(C)=O)cc1 (repeat unit) | -3.00
*/C(C)=C(/*)[Si](C)(C)CC[Si](C)(C)C (repeat unit) | 200.00
*CC(c1ccccc1)C1C(=O)N(c2ccc(C(C)(C)C)cc2)C(=O)C1* (repeat unit) | 237.00
*Oc1c(C)cc(*)cc1C(C)CCCCC (repeat unit) | 60.00
*CC(O)COc1ccc(S(=O)(=O)c2ccc(O*)cc2)cc1 (repeat unit) | 167.50
*O[Si](C)(C=C)O[Si](C)(C)c1ccc([Si](*)(C)C)cc1 (repeat unit) | -63.00
*c1ccc(Oc2ccc(C(c3ccc(Oc4ccc(-n5c(=O)c6cc7c(=O)n(*)c(=O)c7cc6c5=O)cc4C(F)(F)F)cc3)(C(F)(F)F)C(F)(F)F)cc2)c(C(F)(F)F)c1 (repeat unit) | 253.00
*O[Si](*)(C)OCCOCCOCCOC (repeat unit) | -120.10
*c1cccc(OCCCCCCCCCCCOC(=O)c2cccc(C(=O)OCCCCCCCCCCCOc3cccc(-c4nnc(*)s4)c3)c2)c1 (repeat unit) | 15.00
*Oc1ccc(S(=O)(=O)c2ccc(Oc3c(C)cc(C(C)(C)c4cc(C)c(*)c(C)c4)cc3C)cc2)cc1 (repeat unit) | 231.30
*Oc1ccc(*)cc1 (repeat unit) | 85.00
*Nc1ccc(*)cc1OCCCCCCCCCCCC (repeat unit) | 87.00
*CC(c1ccccc1)C1C(=O)N(C(C)(C)C)C(=O)C1* (repeat unit) | 178.00
*c1ccc(NC(=O)c2ccc(OCCOCCOCCOCCOCCOc3ccc(C(=O)Nc4ccc5[nH]c(*)nc5c4)cc3)cc2)cc1 (repeat unit) | 125.00
*C(=O)Nc1ccc(Oc2ccc(-c3ccc(Oc4ccc(NC(=O)c5ccc6c(c5)C(=O)N(c5ccc(C)c(N7C(=O)c8ccc(*)cc8C7=O)c5)C6=O)cc4)cc3)cc2)cc1 (repeat unit) | 299.00
*Nc1ccc(C2(c3ccc(NC(=O)c4ccc(C(*)=O)cc4)cc3)c3ccccc3-c3ccccc32)cc1 (repeat unit) | 319.00
*CCSSCCO* (repeat unit) | -53.00
